Source of measurements: PubChem BioAssay

assay-comment: reduced SW480 viability measured with CellTiter-Glo, NPC library, primary (AID 1117343)
particulars: CellTiter-Glo luminescence; at 20 µM (top of the series)
The source made the active and inactive calls.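 The calls were made as follows: active = compounds that lower viability of the colon cancer cells in the luminescence readout, with no numeric limit stated; inactive = the rest.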
Reply using exactly one outcome from true for active, false for inactive

>>> cat("CC1CCN(CCCC(=O)c2ccc(F)cc2)CC1")
"false"

Query: // outcome(item) with item = "CC[C@@]1(O)C(=O)OCc2c1cc1n(c2=O)Cc2cc3c(CN(C)C)c(O)ccc3nc2-1"
Reply: true

Query: Thanks! And "Oc1ccc(OCc2ccccc2)cc1" ?
Reply: false

Query: Thanks! And CC1CCC(NC(=O)N(CCCl)N=O)CC1 (stereo not drawn) ?
Reply: false

Query: Thanks! And "CC(=O)Nc1cccc(O)c1" ?
Reply: false

Query: Thanks! And "NCCCC(=O)O" ?
Reply: false

Query: Thanks! And CC(Cc1ccccc1)(NC(=O)CN)c1ccccc1 (stereo not drawn) ?
Reply: false

Query: Thanks! And "O=NN(CCCl)C(=O)NCCCl" ?
Reply: false

Query: Thanks! And "O=C(O)CN1C(=O)c2cccc3cccc(c23)C1=O" ?
Reply: false

###

Please respond with reported inhibition for every item in the list.
assay-comment: growth inhibition, MDA-MB-436, cell-based, BGB or cisplatin combos, synergistic combos for chromothripsis tumors (AID 1671458);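 also: cells exposed for 96 hours; 0% = vehicle DMSO and 100% = killing by high DMSO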
particulars: MDA-MB-436 breast carcinoma growth inhibition, drug combinations; measured here: BGB combination; at 0.5 µM; stronger effect = higher value
Give bare numbers, in %.

Known inhibition results, listed for orientation:
>>> endpoint_value("CCn1cc(C(=O)O)c(=O)c2cc3c(cc21)OCO3")
-16.2
>>> endpoint_value("Cc1oncc1C(=O)Nc1ccc(C(F)(F)F)cc1")
12.3
>>> endpoint_value("O=C(O)CCCCCCCC(=O)O")
-23.3
>>> endpoint_value("Nc1[nH]c(=O)ncc1F")
-21.4
>>> endpoint_value("C[C@H]1COc2c(C3(N)CC3)c(F)cc3c(=O)c(C(=O)O)cn1c23")
-30.5

Fill in inhibition for each of the 4 compounds listed.
1. Nc1nc(=S)c2[nH]cnc2[nH]1
2. Cc1nc2ccc(CN(C)c3ccc(C(=O)N[C@@H](CCC(=O)O)C(=O)O)s3)cc2c(=O)[nH]1
3. CC(N)C12CC3CC(CC(C3)C1)C2 (stereo unspecified)
4. O=c1oc2c(O)c(O)cc3c(=O)oc4c(O)c(O)cc1c4c23

Reply:
4.09
26.6
-21.6
-12.3

Fill in inhibition for each of the 2 compounds listed.
1. CN(C)c1ccc(C(=C2C=CC(=[N+](C)C)C=C2)c2ccc(N(C)C)cc2)cc1
2. O=NN(CCCl)C(=O)NCCCl

Reply:
1: 73.7; 2: -10

###

assay-comment: GLP1 release stimulators, primary, NCI-H716, NPC library (AID 1117341); also: reference of the scale not given here
particulars: NCI-H716 cells, at 10 µM, stronger effect = higher value
Please respond with reported GLP1 secretion stimulation for every item in the list.
Give bare numbers, in %.

Fill in GLP1 secretion stimulation for each of the 8 molecules listed.
1. CCn1cc(C(=O)O)c(=O)c2cc3c(cc21)OCO3
2. CC(C)(C#N)c1cc(Cn2cncn2)cc(C(C)(C)C#N)c1
3. CC[N+](C)(C)Cc1ccccc1Br
4. CS(=O)(=O)Nc1ccc([N+](=O)[O-])cc1Oc1ccccc1
5. O=C(c1ccc(F)cc1)C1CCN(CCn2c(=S)[nH]c3ccccc3c2=O)CC1
6. Nc1ccc(N=Nc2ccccc2)c(N)n1
7. O=C(O)c1cccnc1Nc1cccc(C(F)(F)F)c1
8. CCC(=O)c1c(O)cc(O)cc1O

Reply:
1. -1.5
2. 2.1
3. -3
4. 0.1
5. 3.7
6. -4.7
7. 0.6
8. -2

Fill in GLP1 secretion stimulation for each of the 5 molecules listed.
1. Cc1ccc2c(Cl)cc(Cl)c(O)c2n1
2. CN(C)/N=N/c1nc[nH]c1C(N)=O
3. C[C@H](NC(CCc1ccccc1)C(=O)O)C(=O)N1CCC[C@H]1C(=O)O (stereo partly drawn)
4. Nc1ncnc2nc[nH]c12
5. NC(=O)N/N=C/c1ccc([N+](=O)[O-])o1

Reply:
1. 2
2. -1.3
3. 1.4
4. -1.7
5. -2.5
